- MEASURED_ON: rabbit reticulocyte 15-LO (Oryctolagus cuniculus, UniProt P12530)
- Sequence (P12530 1-663): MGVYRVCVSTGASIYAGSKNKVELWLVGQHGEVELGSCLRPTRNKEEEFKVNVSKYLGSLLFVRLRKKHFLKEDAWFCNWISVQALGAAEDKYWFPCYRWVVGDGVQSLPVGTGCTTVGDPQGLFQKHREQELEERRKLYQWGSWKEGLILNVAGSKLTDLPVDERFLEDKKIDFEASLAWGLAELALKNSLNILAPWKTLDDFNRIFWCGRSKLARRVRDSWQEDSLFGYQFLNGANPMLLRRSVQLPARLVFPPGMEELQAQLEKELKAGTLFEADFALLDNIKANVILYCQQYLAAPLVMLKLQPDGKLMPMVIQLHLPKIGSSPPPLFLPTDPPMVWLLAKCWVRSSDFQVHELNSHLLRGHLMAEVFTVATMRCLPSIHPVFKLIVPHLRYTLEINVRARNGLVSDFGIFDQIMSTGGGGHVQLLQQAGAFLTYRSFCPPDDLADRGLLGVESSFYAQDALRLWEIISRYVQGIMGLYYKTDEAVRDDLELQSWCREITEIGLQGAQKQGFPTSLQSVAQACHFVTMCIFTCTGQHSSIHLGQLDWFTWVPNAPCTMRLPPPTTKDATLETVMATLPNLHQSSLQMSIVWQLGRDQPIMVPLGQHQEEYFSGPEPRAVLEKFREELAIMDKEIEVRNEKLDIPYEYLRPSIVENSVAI
pIC50: −log10 of the molar value.
REPORTED_ENDPOINT: pIC50

Examples from the recorded data:
COMPOUND	pIC50
COc1ccc(C(=O)Nc2ccc(F)c(F)c2)cc1NS(=O)(=O)NC(=O)Nc1ccc(C(C)(C)C)cc1 [Example 59]	7.89
COc1ccc(C(=O)Nc2ccc(F)c(F)c2)cc1NS(N)(=O)=O [Example 55]	7.72
COc1ccc(C(=O)Nc2ccc(F)c(F)c2)cc1NS(=O)(=O)NC(=O)Nc1ccc(C(=O)O)cc1 [Example 65]	7.52
COC(=O)NS(=O)(=O)Nc1cc(-c2cc3cc(F)c(F)cc3[nH]2)ccc1OC [Example 29]	7.33
COc1ccc(-c2cc3cc(F)c(F)cc3[nH]2)cc1NS(=O)(=O)NC(=O)Nc1ccc(Cl)cc1 [Example 27]	7.64

P = COc1ccc(-c2cc3cc(F)c(F)cc3[nH]2)cc1NS(=O)(=O)NC(=O)OCC(C)C [Example 22]
Q = CCCCOC(=O)NS(=O)(=O)Nc1cc(-c2cc3cc(F)c(F)cc3[nH]2)ccc1OC [Example 21]
-- ask Endpoint returns whichever of P and Q has the numerically higher pIC50. To answer, give the label that identifies your chosen option.
-- reply Q
(Q: 8.05, P: 7.60)
